# Lookup of reported IC50 keyed by entry
biological target: KDR (Homo sapiens); experiment: KDR autophosphorylation ELISA in HUVEC cells; assay type: cell-based; set-up: endogenous in cells; host or cells: HUVEC (Lonza #C2519A); conditions: cellular activity, VEGF165-stimulated, phospho-KDR ELISA

O=C(Nc1ccc(F)cc1)C1(C(=O)Nc2ccc(Oc3ccnc4cc(-c5cnn(C(F)F)c5)ccc34)c(F)c2)CC1 [Compound 123]    ≤ 10 nM
CNC(=O)c1cc2c(Oc3ccc(NC(=O)C4(C(=O)Nc5ccc(F)cc5)CC4)cc3)ccnc2cc1-c1cnn(C)c1 [Compound 77]    10 to 100 nM

Enquiry: Which measured IC50 value corresponds to CS(=O)(=O)n1cc(-c2ccc3c(Oc4ccc(NC(=O)C5(C(=O)Nc6ccc(F)cc6)CC5)cc4)ccnc3c2)cn1 [Compound 79] ?
Return: ≤ 10 nM

Enquiry: Which measured IC50 value corresponds to O=C(Nc1ccc(F)cc1)C1(C(=O)Nc2ccc(Oc3ccnc4cc(-c5ccnc(F)c5)ccc34)cc2)CC1 [Compound 33] ?
Return: 10 to 100 nM

Enquiry: Which measured IC50 value corresponds to Cc1cc2c(Oc3cc(Cl)c(NC(=O)C4(C(=O)Nc5ccc(F)cc5)CC4)cc3F)ccnc2cc1-c1cnn(C)c1 [Compound 112] ?
Return: > 300 nM

Enquiry: Which measured IC50 value corresponds to Cc1cn(-c2ccc3c(Oc4ccc(NC(=O)C5(C(=O)Nc6ccc(F)cc6)CC5)cc4)ccnc3c2)cn1 [Compound 87] ?
Return: ≤ 10 nM

Enquiry: Which measured IC50 value corresponds to Cn1cc(-c2ccc3c(Oc4ccc(NC(=O)C5(C(=O)Nc6ccc(F)cc6)CC5)cc4)ccnc3c2)ccc1=O [Compound 119] ?
Return: ≤ 10 nM

Enquiry: Which measured IC50 value corresponds to O=C(Nc1ccc(F)cc1)C1(C(=O)Nc2cc(F)c(Oc3ccnc4cc(-c5cnn(C(F)F)c5)ccc34)cc2F)CC1 [Compound 118] ?
Return: 10 to 100 nM

Enquiry: Which measured IC50 value corresponds to Cc1ccn(-c2ccc3c(Oc4ccc(NC(=O)C5(C(=O)Nc6ccc(F)cc6)CC5)cc4)ccnc3c2)n1 [Compound 91] ?
Return: 100 to 300 nM

Enquiry: Which measured IC50 value corresponds to O=C(Nc1ccc(F)cc1)C1(C(=O)Nc2ccc(Oc3ccnc4cc(-c5cc6n(n5)CCC6)ccc34)cc2)CC1 [Compound 124] ?
Return: 10 to 100 nM

----------
Target: KDR (Homo sapiens, UniProt P35968)
Sequence (P35968 20-1356): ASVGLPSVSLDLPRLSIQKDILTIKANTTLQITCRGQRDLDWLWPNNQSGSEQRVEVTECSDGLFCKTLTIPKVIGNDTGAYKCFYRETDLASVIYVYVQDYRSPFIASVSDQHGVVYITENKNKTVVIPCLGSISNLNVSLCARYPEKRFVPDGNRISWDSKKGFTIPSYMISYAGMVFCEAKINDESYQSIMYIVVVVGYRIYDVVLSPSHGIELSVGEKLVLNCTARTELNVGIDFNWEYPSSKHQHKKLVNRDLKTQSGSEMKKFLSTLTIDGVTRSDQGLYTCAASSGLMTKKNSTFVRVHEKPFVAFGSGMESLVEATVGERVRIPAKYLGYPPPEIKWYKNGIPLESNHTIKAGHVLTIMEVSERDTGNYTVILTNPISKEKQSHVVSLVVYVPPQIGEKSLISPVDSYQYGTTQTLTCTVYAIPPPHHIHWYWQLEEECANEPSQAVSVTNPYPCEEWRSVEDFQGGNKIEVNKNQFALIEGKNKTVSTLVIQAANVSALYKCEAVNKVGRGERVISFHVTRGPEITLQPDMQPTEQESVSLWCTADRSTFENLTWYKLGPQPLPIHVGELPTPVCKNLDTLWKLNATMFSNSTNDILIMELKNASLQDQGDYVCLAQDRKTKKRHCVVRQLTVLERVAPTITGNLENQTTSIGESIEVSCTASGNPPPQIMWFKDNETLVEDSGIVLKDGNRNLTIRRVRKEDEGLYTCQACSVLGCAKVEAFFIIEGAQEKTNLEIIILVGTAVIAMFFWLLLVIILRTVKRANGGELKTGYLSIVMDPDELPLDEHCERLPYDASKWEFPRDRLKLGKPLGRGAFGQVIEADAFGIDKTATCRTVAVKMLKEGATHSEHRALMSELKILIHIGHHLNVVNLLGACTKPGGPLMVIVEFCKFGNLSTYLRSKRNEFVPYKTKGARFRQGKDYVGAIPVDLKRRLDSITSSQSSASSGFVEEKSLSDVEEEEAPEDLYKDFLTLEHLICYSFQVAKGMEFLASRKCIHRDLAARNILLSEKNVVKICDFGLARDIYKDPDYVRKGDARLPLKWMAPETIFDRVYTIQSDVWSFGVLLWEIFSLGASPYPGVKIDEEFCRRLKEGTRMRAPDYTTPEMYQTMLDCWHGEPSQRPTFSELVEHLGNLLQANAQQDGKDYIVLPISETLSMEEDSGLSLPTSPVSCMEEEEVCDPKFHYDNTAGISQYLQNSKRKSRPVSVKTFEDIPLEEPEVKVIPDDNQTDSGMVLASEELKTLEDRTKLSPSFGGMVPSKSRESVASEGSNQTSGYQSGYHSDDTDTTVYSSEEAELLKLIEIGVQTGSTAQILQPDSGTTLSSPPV
Assay: KDR autophosphorylation ELISA in HUVEC cells
Format: cell-based
Set-up: endogenous in cells; host or cells: HUVEC (Lonza #C2519A)
Conditions: cellular activity, VEGF165-stimulated, phospho-KDR ELISA
Experimental: Human umbilical vein endothelial cells or HUVEC (Lonza #C2519A) were seeded at 2×10^4 cells/well onto 96-well plates (Corning #3904), in EGM-2 growth medium (Lonza #CC-3162) containing 1% Penicillin Streptomycin (Thermo Fisher #15140-122). […] IC50 values were calculated by nonlinear regression analysis using a 4-parameter logistic curve fit in ActivityBase XE (IDBS).
pIC50: −log10 of the molar value.
# Lookup of reported pIC50 keyed by entry

Before answering, review these 2 worked examples.
CC1Cc2cc(F)ccc2N1C(=O)C1(C(=O)Nc2ccc(Oc3ccnc4cc(-c5cnn(C)c5)ccc34)cc2)CC1 (stereo not drawn)    < 6.52
Cc1cc2c(Oc3cc(F)c(NC(=O)C4(C(=O)Nc5ccc(F)cc5)CC4)cc3F)ccnc2cc1-c1cnn(C)c1    7.00 to 8.00

Enquiry: Which measured pIC50 value corresponds to Cn1ccc(-c2ccc3c(Oc4ccc(NC(=O)C5(C(=O)Nc6ccc(F)cc6)CC5)cc4)ccnc3c2)n1 ?
Return: ≥ 8.00
